Assay info: yeast display, Sf9 membrane polyspecificity reagent, FACS + sequencing; frameworks hold sequencing errors
Readout kind: polyreactivity (PSR sort gate)

Previously resolved entries follow.
- Monomer sequence: "QVQLVETGGGLVQAGGSLRLSSAASGSTFTYNVMGWYRQAPGKERELVAAISRIAGRTYYADSVKGRFTISRDTAKNTVYLQMNSLKPEDTAVYYCAALALKWRYDFWGQGTQVTVSS"
  Readout kind: "polyreactivity (PSR sort gate)"
  Reported result: "high polyreactivity"
- Monomer sequence: "QVQRVESGGGLVQAGGSLRLSCAATGFTSGDYAMGWYRQAPGKERELVAAIDSDGSTNYADSVKGRFTISRDNAKNTVYLQMNSLKPEDTADYYCNAKRYGFFYWQGDYWGQGTQVTVSS"
  Readout kind: "polyreactivity (PSR sort gate)"
  Reported result: "low polyreactivity"
- Monomer sequence: "QVQLVESGGGLVQAGGSLRLSCAASGRTLSWYAMGWYRQAPGKERELVASISSGGGTYYADSVKGRFTISRDNAKNTVYLQMNSLKPEDTAVYYCAARYHYAKSPYRYYYWGQGTQVTVSS"
  Readout kind: "polyreactivity (PSR sort gate)"
  Reported result: "high polyreactivity"
- Monomer sequence: "QVQLVESGGGLVQAGGSLRLSCAASGRIFWDNAMGWYRQAPGKERELVAAISDSVVITYYADSVKGRFTISRDNAKNTVYLQMNSLKPEDTAVYYCAADKRGTVYLSSFWMDYWGQGTQVTVSW"
  Readout kind: "polyreactivity (PSR sort gate)"
  Reported result: "low polyreactivity"

Okay, now this sequence:
(Q) Can you share its polyreactivity (PSR sort gate)? I mean this sequence: QVQLVESGGGLVQAGGSLRLSCAASGSIFFDGNAMGWYRQAPGKERELVAAISVSGGSTYYADSVKGRFTISRDYAKTTVYLQINRLKPEDTAVYDCAKYPSKSYVPGDYWGQGTQVTVSS
(A) low polyreactivity

----------
Assay info: yeast display, Sf9 membrane polyspecificity reagent, FACS + sequencing; frameworks hold sequencing errors
Readout kind: polyreactivity (PSR sort gate)

Previously resolved entries follow.
- Monomer sequence: "QVQLVESGGGLVQAGGSLRLSCAASGSTFTIYAMGWYRPAPGKERELVAAIDWSGGGTDYADSVKGRFTISRDNAKNTVYLQMNSLKPEDTAVYYCAAETFYDYGGYDYWGQGTQVTVSS"
  polyreactivity (PSR sort gate): "low polyreactivity"
- Monomer sequence: "QVQLVESGGGLVQAGGSLRLSCAASGRIFRGYVMGWYRQAPGKERELVAAISSSGGSTYYADSVKGRFTISRDNAKNTVYLQMNSLKPEDTAVYYCAAAKWFFYGRKYGKYDYWGQGTQVTVSS"
  polyreactivity (PSR sort gate): "high polyreactivity"
- Monomer sequence: "QVQLVESCGGLVQAGGSLRLSCAASGFTFRNYVMGWYRQAPGKERELVAAISSTGGSTYYADSVKGRFTISRDNAKNTVYLQMNSLKPEDTAVYYCAARYVVQWPRYGFDYWGQGTQVTVSS"
  polyreactivity (PSR sort gate): "high polyreactivity"
- Monomer sequence: "QVQLVESGGGLVQAGGSLRLSCAASGFTFQGYVMGWYRQAPGKERELVARITNDGSTTYADSVKGRFTISRDNAKNTVYLQMNTLKPEDTAVYYCARPYRFWRYYGMYYWGQGTQVTVSS"
  polyreactivity (PSR sort gate): "high polyreactivity"
- Monomer sequence: "QVQLVESGGGLVQAGCSLRLSCAASGRTFRSDNSMGWYRQSPGKQRELVAAISQGGGTYYADSVKGRFTISRDNAKNTVYLLMNSLIPEDTAVYYCARDAFYADPSLWYYTYDFWGQGTQETVSS"
  polyreactivity (PSR sort gate): "low polyreactivity"

(Q) Can you share its polyreactivity (PSR sort gate)? I mean this sequence: QVQLVESGGGLVQAGCSLRLSCAASGSIFEPYVMGWYRQAPGKERELVAAIRQTGGSTYYADSVKGRFKISRDNAKNTVYLQMNSLKPEDNAFYYCNAEHNPSGLYDYRGVECEMGYWGQGNQVTVSS
(A) low polyreactivity

(Q) Can you share its polyreactivity (PSR sort gate)? I mean this sequence: QVQLVESGGGLVQAGGSLRLSCAASGFTFYTYAMGWYRPAPGKERELVATITIGDGSTYYADSVKGRFTISRDNAKNTVYLQMNSLKPEDTAVYYCNRDSVGYDYWGQGSQVTVSS
(A) low polyreactivity

(Q) Can you share its polyreactivity (PSR sort gate)? I mean this sequence: QVQLVESGGGLVQAGGSLRLSCAASGSILGRYAMGWYRQAPGKERELVAVITSGGSTNYADSVKGRFTISRDNAKNTVYLQMNSLKPEDTAVYYCAVRPYELHRLADQPGGDDYWGQGTQVTVSS
(A) low polyreactivity

(Q) Can you share its polyreactivity (PSR sort gate)? I mean this sequence: QVQLVESGGGLVQAGGSLRLSCAASGITFRLYAMGWSRQAPGKEREFVAAISRRGGSTYYADSVKGRFTISRDNAKNSVYLQMNSLKPEDTAVYYCARYGLVYALGYWGQGTQVTVSS
(A) high polyreactivity

(Q) Can you share its polyreactivity (PSR sort gate)? I mean this sequence: QVQLQESGGGLVQAGGSLLSCAASGTISYYREMGWYRQSPGKERELVAGIGVGTITYYADSVKGRFTISRDNAKNTVYLQMNSLKPEDTAVYYCAAHIDGNDSNAYWGQGTQVTVSS
(A) low polyreactivity

(Q) Can you share its polyreactivity (PSR sort gate)? I mean this sequence: QVQHVDSGGGLVQTGGSLLLSCAAYGRTFCVNDMGWYRQAAGKEREFVAAITWRGDSTYYADSVKGRFTISRDNAKNTVYLQMNSLKPEDSAVYYCNADVISLYDHPDYLYLFDYWGQGTQVTVSS
(A) low polyreactivity

(Q) Can you share its polyreactivity (PSR sort gate)? I mean this sequence: QVQLVESGGGLVQAGGSLRLSFAASGRTFVLYTMGWYRQAPGKERELVAAISVGGALTYYADSVRGRFTISRDNAKNTVYLQMNSLKPEDSAVYYCAARRHSRVKYRDYWGQGTQVTVSS
(A) high polyreactivity

(Q) Can you share its polyreactivity (PSR sort gate)? I mean this sequence: QVQLVESGGGLVQAGGSLRLSCAASGIILSENDMGWYRQAPGKERELVAAITSSGSTSYADSVKGRFTISRDNAKNTVYLQMNSLKPEDTAVYYCAADYLNPFPPYQYWKQSYDYWGQGTQVTVSS
(A) low polyreactivity

(Q) Can you share its polyreactivity (PSR sort gate)? I mean this sequence: QVQLVESGGGLVQAGGSLRLSCAASGSTFSRYVMGWYRQAPGKERELVAAISSTGGSTYYADSVKGRFTISRDNAKNTVYLQMNSLKPEDTAVYYCNTTYSYGVAAARYYYWGQGTQVTVSS
(A) high polyreactivity

(Q) Can you share its polyreactivity (PSR sort gate)? I mean this sequence: QVQLVESGRGLVQAGGSLRLSCAASGRSFAVYAMAWYRPAPGKVMELVAAISSGGSTYYADSVKGRFTSSRDNAKNTVYVQMNSLKPEDSSVSYCAAGWKRLSGRKHYYWGQGTQVTVSS
(A) high polyreactivity

(Q) Can you share its polyreactivity (PSR sort gate)? I mean this sequence: QVQLVESGGGLVQAGASLRLSCAASGRIFSKNAMGWYRQAPGKERELVAAISANTGSTYYADSVKGRFTISRDNAKNTVYLQMNILKPEDTAVYYCATTWTIRRYRYTPRLVDYWGQGTQVTVSS
(A) low polyreactivity

(Q) Can you share its polyreactivity (PSR sort gate)? I mean this sequence: QVQLVESGGGLVQAGGSLRLSCAASGGIFGYYAMAWYRQAPGKEREFVAAITLSGGRSYYADSVKGRFTISRDNAKNTVYLQMNSLKPEDTAVYYCNAYPYYLVRNMDSWGQGTQVTVTS
(A) high polyreactivity

(Q) Can you share its polyreactivity (PSR sort gate)? I mean this sequence: QDQLVDSGGGLVQAGGSLRLSCAASGRTIISYAMGRYRPAPGKERELVATITRDGRTNYADSVKGRFTISRDNAKNTVYLQMNSLNPEDTAVYYCNADSRYRYDYWGQGSQVTVSS
(A) low polyreactivity

(Q) Can you share its polyreactivity (PSR sort gate)? I mean this sequence: QVHLVESGGGLVQAGGSLRLSCDASGRTFFPYGMGWYRQAPGKQRELVATISWSGGSTHYADSVKGRFTISRDNAKNTVYLQMNSLKPEDNAVYYCNKTSFLVKLDYWGQVTQVTVSS
(A) high polyreactivity

(Q) Can you share its polyreactivity (PSR sort gate)? I mean this sequence: QVQLVESGGGLVQAGGSLRLSCAASGRIFKLYAMGWDRQAPGKERELVAAISKSGGNTYADSVKGRFTISRDNAKNTVYLQMNSLKPEDTAVYYCAATVQSTSDPFDYWGQGTQVTVSS
(A) low polyreactivity

(Q) Can you share its polyreactivity (PSR sort gate)? I mean this sequence: QVQLVESGGGLVQAGGSLRLSCAASGRILGNNVMGWYRQAPGKERELVAAITSSGGRTYYADSVKGRFTISRDNAKNTVYLQMNSLKPVDTAVYYCAAERRYYGKFNYWGQGTQVTVSS
(A) high polyreactivity
